In this section, each of the compounds is paired with its reported melting point.

Previously resolved entries follow.
{"COMPOUND_STRUCTURE_STRING": "Cc1ncc(C#N)c(Nc2ccc3[nH]ccc3c2C)c1-c1cc2cc(CN3CCN(C)CC3)ccc2o1", "melting point": "218 to 220 °C"}
{"COMPOUND_STRUCTURE_STRING": "COc1ccc(-c2c(C)ncc(C#N)c2Nc2ccc3[nH]ccc3c2C)cc1OC", "melting point": "202 to 203 °C"}

Req: Fill in: melting point of Cc1ncc(C#N)c(Nc2cccc3[nH]ccc23)c1-c1ccc(OCCCl)cc1 is ___
Resp: 185 to 186 °C

Req: Fill in: melting point of Cc1ncc(C#N)c(Nc2ccc3[nH]ccc3c2C)c1-c1cc2ccccc2o1 is ___
Resp: 154 to 155 °C

Req: Fill in: melting point of Cc1ncc(C#N)c(Nc2cccc3[nH]ccc23)c1-c1cc2ccccc2o1 is ___
Resp: 192 to 193 °C

Req: Fill in: melting point of COc1ccc(-c2c(C)ncc(C#N)c2Nc2cccc3[nH]ccc23)cc1OC is ___
Resp: 182 to 183 °C

Req: Fill in: melting point of Cc1ncc(C#N)c(Nc2ccc3[nH]ccc3c2C)c1-c1ccc(OCCCl)cc1 is ___
Resp: 200 to 201 °C

Req: Fill in: melting point of Cc1ncc(C#N)c(Nc2ccc3[nH]ccc3c2C)c1-c1ccc(OCCN2CCN(C)CC2)cc1 is ___
Resp: 183 to 184 °C

Req: Fill in: melting point of Cc1ncc(C#N)c(Nc2ccc3[nH]ccc3c2C)c1-c1cc2cc(C=O)ccc2o1 is ___
Resp: 168 to 169 °C

---

In this section, each of the compounds is paired with its reported half-life.
# PROTOCOL: Metabolic stability in rat liver microsomes
# Type: in vitro ADME
# CONDITION_CONTEXT: 30 minutes incubation, remaining compound by HPLC, 6-Me compounds of the invention, read-out: Rat Microsome Stability of 6-Me cyanopyridine Compounds (approximate half life)

Previously resolved entries follow.
{"COMPOUND": "Cc1ncc(C#N)c(Nc2ccc3[nH]ccc3c2C)c1-c1ccc(OCCNCc2ccccc2)cc1 [Example 39]", "ASSAY_VALUE": "14 min"}
{"COMPOUND": "Cc1ncc(C#N)c(Nc2ccc3[nH]ccc3c2C)c1-c1ccc(OCCN2CCOCC2)cc1 [Example 30]", "ASSAY_VALUE": "17 min"}

Next compound, please.
Req: Fill in: half-life of Cc1ncc(C#N)c(Nc2ccc3[nH]ccc3c2C)c1-c1ccc(OCCN2CCCC2)cc1 [Example 20] is ___
Resp: > 30 min

---

# ASSAYED_SYSTEM: UniProtKB Q04759
# Sequence (Q04759 whole entry): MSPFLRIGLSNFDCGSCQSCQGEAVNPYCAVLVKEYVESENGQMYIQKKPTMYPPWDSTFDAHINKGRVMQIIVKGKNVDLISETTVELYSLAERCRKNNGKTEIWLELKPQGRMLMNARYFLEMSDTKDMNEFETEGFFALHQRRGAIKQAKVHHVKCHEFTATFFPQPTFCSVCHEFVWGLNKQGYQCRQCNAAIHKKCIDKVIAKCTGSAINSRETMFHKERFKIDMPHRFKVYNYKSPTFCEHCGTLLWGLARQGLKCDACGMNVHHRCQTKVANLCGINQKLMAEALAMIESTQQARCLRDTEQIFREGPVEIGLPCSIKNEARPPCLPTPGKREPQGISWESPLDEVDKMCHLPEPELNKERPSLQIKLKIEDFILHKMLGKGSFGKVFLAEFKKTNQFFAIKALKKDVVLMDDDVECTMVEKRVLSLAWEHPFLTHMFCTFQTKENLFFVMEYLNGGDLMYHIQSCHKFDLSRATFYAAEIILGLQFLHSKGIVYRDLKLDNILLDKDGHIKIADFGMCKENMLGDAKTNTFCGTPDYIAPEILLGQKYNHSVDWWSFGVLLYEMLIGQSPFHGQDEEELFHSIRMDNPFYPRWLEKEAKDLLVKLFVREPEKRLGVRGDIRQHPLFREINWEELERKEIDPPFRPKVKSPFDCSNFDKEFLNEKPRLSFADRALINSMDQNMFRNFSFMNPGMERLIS
PROPERTY_NAME: pIC50
Schema: pIC50 number; meaning minus log10 of the concentration expressed in molar units.

Previously resolved entries follow.
{"COMPOUND_STRUCTURE_STRING": "Cc1ncc(C#N)c(Nc2ccc3[nH]ccc3c2)c1-c1cc2ccccc2s1", "pIC50": 6.86}
{"COMPOUND_STRUCTURE_STRING": "COc1ccc(-c2c(C)ncc(C#N)c2Nc2ccc3cc[nH]c3c2)cc1OC", "pIC50": 4.92}
{"COMPOUND_STRUCTURE_STRING": "Cc1ncc(C#N)c(Nc2ccc3[nH]ccc3c2C)c1-c1ccc(OCCNCc2ccccn2)cc1", "pIC50": 7.54}

Next compound, please.
Req: Lab request: please report pIC50 under test system UniProtKB Q04759 for Cc1ncc(C#N)c(Nc2ccc3[nH]ccc3c2C)c1-c1ccc(CN2CCN(C)CC2)s1
Resp: 7.85
